assay: Circular dichroism spectroscopy with CDNN secondary structure analysis; assay type: physicochemical; details: CD 190–260 nm; 25μM peptide in 5mM HEPES buffer with 1% LPC; CDNN; relative amount of structure out of 100%
Reported Antiparallel β-Sheet values for the following sequences.
Give a bare numeral; the unit % is implied.

residue.string	endpoint.result
AVWLVSALA [HTLV FP5-13, segment 5-13 of the HTLV FP]	6.7
AVPVAVWLVSALAMGAGVAGGITGSMSLASGKS [HTLV FP, gp21 fusion peptide of HTLV-1, MT-2 isolate]	2.1
VSALAMGAGVAGGI [HTLV FP9-22, segment 9-22 of the HTLV FP]	30.4

**Q:** # return recorded Antiparallel β-Sheet for entry MGAGVAGGI [HTLV FP14-22, segment 14-22 of the HTLV FP]
**A:** 27.7

====

test: Circular dichroism spectroscopy with CDNN secondary structure analysis; type: physicochemical; settings: CD 190–260 nm; 25μM peptide in 5mM HEPES buffer with 1% LPC; CDNN; relative amount of structure out of 100%
Here the recorded β-turn is given for each entry.
The response must be a number in % with no trailing unit.

**Q:** Name the recorded β-turn of the sequence listed here: MGAGVAGGI [HTLV FP14-22, segment 14-22 of the HTLV FP]
**A:** 17.1

====

The entries below are paired with their reported α-Helix.
assay: Circular dichroism spectroscopy with CDNN secondary structure analysis; assay type: physicochemical; conditions: CD 190–260 nm; 25μM peptide in 5mM HEPES buffer with 1% LPC; CDNN; relative amount of structure out of 100%
Give the quantity in %, number only.

residue.string	endpoint.result
AVPVAVWLVSALAMGAGVAGGITGSMSLASGKS [HTLV FP, gp21 fusion peptide of HTLV-1, MT-2 isolate]	68.6

**Q:** Give a short answer stating reported α-Helix for AVWLVSALA [HTLV FP5-13, segment 5-13 of the HTLV FP] .
**A:** 54

**Q:** Look up α-Helix of VSALAMGAGVAGGI [HTLV FP9-22, segment 9-22 of the HTLV FP] and report it.
**A:** 8.5

**Q:** Read the entry MGAGVAGGI [HTLV FP14-22, segment 14-22 of the HTLV FP] and write its reported α-Helix.
**A:** 11.2

====

assay: Circular dichroism spectroscopy with CDNN secondary structure analysis; assay type: physicochemical; conditions: CD 190–260 nm; 25μM peptide in 5mM HEPES buffer with 1% LPC; CDNN; relative amount of structure out of 100%
The entries below come with measured Parallel β-Sheet values attached.
Respond numerically; units are % and should not be typed.

residue.string	assay.metric	endpoint.result
AVPVAVWLVSALAMGAGVAGGITGSMSLASGKS [HTLV FP, gp21 fusion peptide of HTLV-1, MT-2 isolate]	Parallel β-Sheet	3.3
VSALAMGAGVAGGI [HTLV FP9-22, segment 9-22 of the HTLV FP]	Parallel β-Sheet	11.7
MGAGVAGGI [HTLV FP14-22, segment 14-22 of the HTLV FP]	Parallel β-Sheet	11.7

// moving on: another record for Parallel β-Sheet
**Q:** // Input: AVWLVSALA [HTLV FP5-13, segment 5-13 of the HTLV FP] . Output its Parallel β-Sheet only.
**A:** 5.2

====

test: Circular dichroism spectroscopy with CDNN secondary structure analysis; assay type: physicochemical; settings: CD 190–260 nm; 25μM peptide in 5mM HEPES buffer with 1% LPC; CDNN; relative amount of structure out of 100%
Entries and their Random-coil
# unit: % | format: bare number

These recorded examples may help you get a feel for the data.
residue.string	endpoint.result
AVPVAVWLVSALAMGAGVAGGITGSMSLASGKS [HTLV FP, gp21 fusion peptide of HTLV-1, MT-2 isolate]	13
VSALAMGAGVAGGI [HTLV FP9-22, segment 9-22 of the HTLV FP]	32.6
AVWLVSALA [HTLV FP5-13, segment 5-13 of the HTLV FP]	17.3

**Q:** Assign Random-coil to the following record: MGAGVAGGI [HTLV FP14-22, segment 14-22 of the HTLV FP]
**A:** 32.5

====

test: Circular dichroism spectroscopy with CDNN secondary structure analysis; type: physicochemical; details: CD; 25μM peptide in 5mM HEPES buffer with 1% LPC
assay.metric: secondary structure in a membrane mimetic environment

residue.string	endpoint.result
VSALAMGAGVAGGI [HTLV FP9-22, segment 9-22 of the HTLV FP]	found to be random coils
MGAGVAGGI [HTLV FP14-22, segment 14-22 of the HTLV FP]	found to be random coils

====

test: Circular dichroism spectroscopy with CDNN secondary structure analysis; type: physicochemical; settings: CD 190–260 nm; 25μM peptide in 5mM HEPES buffer with 1% LPC; CDNN; relative amount of structure out of 100%
assay.metric: β-turn
Dear colleague, please send the value followed by its unit.

Answered examples (2):
residue.string	β-turn
VSALAMGAGVAGGI [HTLV FP9-22, segment 9-22 of the HTLV FP]	16.8%
AVWLVSALA [HTLV FP5-13, segment 5-13 of the HTLV FP]	16.8%

Now look at this one.
**Q:** Dear colleague, please send me the reported β-turn for AVPVAVWLVSALAMGAGVAGGITGSMSLASGKS [HTLV FP, gp21 fusion peptide of HTLV-1, MT-2 isolate] when you can.
**A:** 13%
